The origin of these recorded values is the supplement of paper PMC8728848.

# measurementTarget: Gal(a1-6)Glc
# assay: glycan array binding signal (z-score within array); higher = stronger binding
# experimentalSetup: glycan notation: IUPAC condensed, linker removed
Many of the other results were omitted from the sample, so the strongest signals are more common in it than they were.
Please note: true (1) applies when glycan array binding signal (z-score) is -0.1 or greater, and false (0) applies otherwise.

AAA (Anguilla anguilla), Q7SIC1 (protein) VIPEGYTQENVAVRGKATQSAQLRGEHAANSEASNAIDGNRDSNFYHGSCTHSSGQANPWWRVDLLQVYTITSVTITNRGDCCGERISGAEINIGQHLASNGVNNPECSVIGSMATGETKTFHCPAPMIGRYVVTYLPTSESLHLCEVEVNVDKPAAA    true (1)

Enquiry: Check the entry Gal 3C (Homo sapiens), P17931 (protein) YGAPAGPLIVPYNLPLPGGVVPRMLITILGTVKPNANRIALDFQRGNDVAFHFNPRFNENNRRVIVCNTKLDNNWGREERQSVFPFESGKPFKIQVLVEPDHFKVAVNDAHLLQYNHRVKKLNEISKLGISGDIDLTSASYTMI : does glycan array binding signal (z-score) equal or exceed -0.1?
Return: false (0)

Enquiry: Try this binder too: NPA (Narcissus pseudonarcissus), C0HM45 (protein) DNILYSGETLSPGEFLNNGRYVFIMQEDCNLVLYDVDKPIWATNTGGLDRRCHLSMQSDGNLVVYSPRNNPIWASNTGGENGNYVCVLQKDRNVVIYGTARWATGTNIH
Return: false (0)

Enquiry: Moving on to the next binder: Clrb (Mus musculus) (protein) ITGATKTEQIPVNKTYAACPQNWIGVENKCFYFSEYPSNWTFAQAFCMAQEAQLARFDNQDELNFLMRYKANFDSWIGLHRESSEHPWKWTDNTEYNNTIPIRGEERFAYLNNNGISSTRIYSLRMWICSKLNSYSLHCQTPFFPSGTKHHHHHHHHG
Return: false (0)

Enquiry: Follow-up entry: L-Selectin (Homo sapiens), P14151 (protein) MIFPWKCQSTQRDLWNIFKLWGWTMLCCDFLAHHGTDCWTYHYSEKPMNWQRARRFCRDNYTDLVAIQNKAEIEYLEKTLPFSRSYYWIGIRKIGGIWTWVGTNKSLTEEAENWGDGEPNNKKNKEDCVEIYIKRNKDAGKWNDDACHKLKAALCYTASCQPWSCSGHGECVEIINNYTCNCDVGYYGPQCQFVIQCEPLEAPELGTMDCTHPLGNFSFSSQCAFSCSEGTNLTGIEETTCGPFGNWSSPEPTCQVIQCEPLSAPDLGIMNCSHPLASFSFTSACTFICSEGTELIGKKKTICESSGIWSNPSPICQKLDKSFSMIKEGDYNPLFIPVAVMVTAFSGLAFIIWLARRLKKGKKSKRSMNDPY
Return: true (1)

Enquiry: Same for HPL (Tachypleus tridentatus) (protein) MEDDCTCVTDRSLEGKLMKHPSTPAVYQILDGCRRLVPNPPTYNNIYKNWECIQSNILEKLLCKCDSLSNGAELIKGSGDTVYLLSNGVKRPIADPETFNGFCFDWNKIKTYSDIVINSLSTGPIIIIKHHHHHH
Return: true (1)
